Measured Emax by item
biological target: M4 muscarinic receptor (Homo sapiens, UniProt P08173); construct: expressed in transfected cells; host or cells: CHO (M4-CHO); assay: Functional mobilization of intracellular calcium (FLIPR) in M4-CHO cells; assay type: cell-based; conditions: M4 receptor, calcium mobilization; read-out: M4 Efficacy
Sequence (P08173 whole entry): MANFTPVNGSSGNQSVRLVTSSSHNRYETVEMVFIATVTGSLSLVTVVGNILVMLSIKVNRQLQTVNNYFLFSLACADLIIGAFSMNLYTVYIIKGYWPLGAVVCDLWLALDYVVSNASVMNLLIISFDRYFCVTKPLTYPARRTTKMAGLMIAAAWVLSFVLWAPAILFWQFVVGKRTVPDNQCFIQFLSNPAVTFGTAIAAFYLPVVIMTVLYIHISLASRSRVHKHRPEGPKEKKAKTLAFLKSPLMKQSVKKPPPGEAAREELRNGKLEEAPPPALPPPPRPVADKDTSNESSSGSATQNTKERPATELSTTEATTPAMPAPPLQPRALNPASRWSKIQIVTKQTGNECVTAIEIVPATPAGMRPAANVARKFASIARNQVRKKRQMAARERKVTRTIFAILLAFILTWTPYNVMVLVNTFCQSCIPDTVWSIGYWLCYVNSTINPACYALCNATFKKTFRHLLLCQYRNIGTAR

Please review the entries below; each comes with its answer.
{"compound": "CCOC(=O)N1CCC(N2CCC3(CC2)CN(C(C)=O)c2ccc(C4CC4)cc23)CC1", "Emax": "> 85%"}
{"compound": "O=C(O[C@@H]1CCOC1)N1C2CCC1CC(N1CCC3(CCc4ccccc43)CC1)C2 (some centres unmarked)", "Emax": "> 85%"}

Next, consider the following compound.
Please give measured Emax of the following entry: CC(=O)N1CC2(CCN(CC3CCCOC3)CC2)c2cc(F)ccc21 (centres unmarked)
65 to 85%
